Origin of values: paper PMC7956626

molecular target: hTRPA1 (Homo sapiens); construct: expressed in transfected cells; assay: Ca2+ influx assay, TRPA1 selectivity; type: cell-based; settings: compound 50 μM; read-out: % TRPA1 Blockade at 50 μM
Sequence (O75762 whole entry): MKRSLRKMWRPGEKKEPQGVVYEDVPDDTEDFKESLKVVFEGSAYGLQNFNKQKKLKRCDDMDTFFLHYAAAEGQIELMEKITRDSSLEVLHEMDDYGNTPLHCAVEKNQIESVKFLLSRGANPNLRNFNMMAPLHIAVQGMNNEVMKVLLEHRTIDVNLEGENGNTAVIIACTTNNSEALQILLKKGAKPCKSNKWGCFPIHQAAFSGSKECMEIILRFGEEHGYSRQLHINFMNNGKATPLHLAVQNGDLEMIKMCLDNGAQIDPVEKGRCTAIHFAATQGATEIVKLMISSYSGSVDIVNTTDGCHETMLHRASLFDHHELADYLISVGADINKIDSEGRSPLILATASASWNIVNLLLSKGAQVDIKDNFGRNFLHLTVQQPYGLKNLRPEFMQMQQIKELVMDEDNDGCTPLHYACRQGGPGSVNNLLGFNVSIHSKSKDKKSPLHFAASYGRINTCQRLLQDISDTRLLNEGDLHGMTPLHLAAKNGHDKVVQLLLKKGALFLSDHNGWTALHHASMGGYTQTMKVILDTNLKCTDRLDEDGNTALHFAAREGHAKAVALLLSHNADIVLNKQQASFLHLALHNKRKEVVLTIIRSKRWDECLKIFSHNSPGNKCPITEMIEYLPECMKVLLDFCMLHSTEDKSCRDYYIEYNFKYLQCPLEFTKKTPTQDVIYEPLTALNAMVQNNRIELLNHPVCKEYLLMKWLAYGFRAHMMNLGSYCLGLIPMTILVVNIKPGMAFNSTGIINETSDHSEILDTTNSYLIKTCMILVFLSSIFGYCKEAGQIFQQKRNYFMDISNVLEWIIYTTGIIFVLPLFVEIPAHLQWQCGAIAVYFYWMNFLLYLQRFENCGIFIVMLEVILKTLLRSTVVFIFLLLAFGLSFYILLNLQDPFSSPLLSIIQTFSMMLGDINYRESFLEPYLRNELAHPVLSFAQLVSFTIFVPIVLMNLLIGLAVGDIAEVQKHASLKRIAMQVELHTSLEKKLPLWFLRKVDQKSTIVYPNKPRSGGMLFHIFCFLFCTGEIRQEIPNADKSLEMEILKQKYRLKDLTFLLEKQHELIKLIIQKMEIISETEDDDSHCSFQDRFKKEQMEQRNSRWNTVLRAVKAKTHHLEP
test_readout: inhibition at 50 µM (%)

Answered examples (2):
                                   molecule     measurement_target         test_readout  meas_value
0  C[C@@H]1C(=O)N(C[C@H](Cc2ccccc2)N(Cc2ccccc2)Cc2ccccc2)[C@]1(Cc1ccccc1)C(=O)OCc1ccccc1 [Compound 13]  hTRPA1 (Homo sapiens)  inhibition at 50 µM         3.7
1  C[C@@H]1C(=O)N(C[C@@H](Cc2ccccc2)N(Cc2ccccc2)Cc2ccccc2)[C@]1(Cc1ccccc1)C(=O)OCc1ccccc1 [Compound 14]  hTRPA1 (Homo sapiens)  inhibition at 50 µM         2.4

I = C[C@H]1C(=O)N(C[C@H](Cc2ccccc2)N(Cc2ccccc2)Cc2ccccc2)[C@@]1(Cc1ccccc1)C(=O)OCc1ccccc1 [Compound 15]
II = C[C@H]1C(=O)N(C[C@@H](Cc2ccccc2)N(Cc2ccccc2)Cc2ccccc2)[C@@]1(Cc1ccccc1)C(=O)OCc1ccccc1 [Compound 16]
Problem: Between I and II , which one shows the smaller inhibition at 50 µM number? State your choice using its label.
Result: II
(II: 0.5%, I: 2.6%)
